- measuredOn: human Werner helicase (WRN-BV08, Uniprot Q14191, amino acids 517-1235 with L1074F point mutation) (Homo sapiens, UniProt Q14191, L1074F)
- Construct: Uniprot Q14191, amino acids 517-1235 with L1074F point mutation; TEV-cleavable 8×His (C, cleaved yes); made in house; host or cells: Sf9 insect cells (baculovirus)
- Sequence (Q14191 with tags, fused parts or gaps L1074F limits assumed): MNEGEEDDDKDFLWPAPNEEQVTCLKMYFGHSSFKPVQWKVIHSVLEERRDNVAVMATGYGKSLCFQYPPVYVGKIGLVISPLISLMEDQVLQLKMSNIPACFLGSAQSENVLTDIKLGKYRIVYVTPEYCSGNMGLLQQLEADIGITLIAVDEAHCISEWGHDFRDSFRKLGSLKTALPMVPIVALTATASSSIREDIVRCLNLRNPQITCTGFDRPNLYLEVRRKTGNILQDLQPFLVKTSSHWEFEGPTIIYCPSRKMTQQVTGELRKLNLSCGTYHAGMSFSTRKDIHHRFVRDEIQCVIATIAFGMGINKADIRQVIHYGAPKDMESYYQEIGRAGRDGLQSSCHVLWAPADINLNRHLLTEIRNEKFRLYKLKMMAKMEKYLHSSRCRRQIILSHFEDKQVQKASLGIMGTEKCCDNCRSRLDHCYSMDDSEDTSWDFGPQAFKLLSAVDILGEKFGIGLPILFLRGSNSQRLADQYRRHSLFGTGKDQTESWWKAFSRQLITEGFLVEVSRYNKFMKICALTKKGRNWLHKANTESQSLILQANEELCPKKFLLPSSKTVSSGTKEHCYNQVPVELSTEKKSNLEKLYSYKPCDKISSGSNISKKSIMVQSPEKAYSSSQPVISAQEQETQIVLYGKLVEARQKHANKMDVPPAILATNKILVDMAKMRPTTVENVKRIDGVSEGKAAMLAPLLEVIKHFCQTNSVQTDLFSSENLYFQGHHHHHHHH
- measurementProtocol: WRN (BV08) ADP-Glo Assay
- Type: biochemical
- experimentalSetup: 0.15 nM WRN, 5 μM ATP, 0.1 nM DNA duplex, 15 min preincubation, 60 min at 25° C., pH 7.5, 1% DMSO; read-out: ADP-Glo_hWRN_IC50
pIC50: −log10 of the molar value.

[
  {
    "compound": "O=C(Cc1ccc(-n2cccc2)cc1)N(Cc1ccc(C(F)(F)F)nc1)C1C=CS(=O)(=O)C1 (stereo not shown)",
    "pIC50": "4.30 to 5.00"
  },
  {
    "compound": "CC(C)(O)c1cc(CN(C(=O)C(F)c2ccc(-c3ccc(F)c(F)c3)cc2F)C2C=CS(=O)(=O)C2)ccn1 (stereo not shown)",
    "pIC50": "> 6.30"
  },
  {
    "compound": "CN(C)C(=O)C(C(=O)N(Cc1ccncc1)C1C=CS(=O)(=O)C1)c1ccc(-c2ccc(F)cc2)cc1 (single isomer, unassigned) [I-27]",
    "pIC50": "> 6.30"
  },
  {
    "compound": "CC(C)(O)c1cc(CN(C(=O)Cc2cc(-c3ccc(F)c(F)c3)sn2)[C@@H]2C=CS(=O)(=O)C2)ccn1",
    "pIC50": "> 6.30"
  },
  {
    "compound": "O=C(Cc1ccc(-c2nccs2)cc1)N(Cc1ccncc1)C1C=CS(=O)(=O)C1 (stereo not shown)",
    "pIC50": "< 4.30"
  },
  {
    "compound": "O=C(Cc1ccc(-c2ccc(F)cc2)cc1)N(Cc1ccncc1)C1C=CS(=O)(=O)C1 (stereo not shown)",
    "pIC50": "5.30 to 6.30"
  },
  {
    "compound": "O=C(Cc1ccc(-c2ccc(F)cc2)cc1)N(Cc1ccccc1)C1C=C(CO)S(=O)(=O)C1 (stereo not shown)",
    "pIC50": "< 4.30"
  }
]

---

- measuredOn: human Werner helicase (WRN-BV08, Uniprot Q14191, amino acids 517-1235 with L1074F point mutation) (Homo sapiens, UniProt Q14191, L1074F)
- Construct: Uniprot Q14191, amino acids 517-1235 with L1074F point mutation; TEV-cleavable 8×His (C, cleaved yes); made in house; host or cells: Sf9 insect cells (baculovirus)
- measurementProtocol: WRN (BV08) ADP-Glo Assay
- Assay type: biochemical
- experimentalSetup: 0.15 nM WRN, 5 μM ATP, 0.1 nM DNA duplex, 15 min preincubation, 60 min at 25° C., pH 7.5, 1% DMSO; read-out: ADP-Glo_hWRN_IC50

[
  {
    "molecule": "CC(C(=O)N(Cc1ccnc(C(C)(C)O)c1)C1C=CS(=O)(=O)C1)n1cc(-c2ccc(C(F)(F)F)cc2)cn1 (single isomer, unassigned) [I-775]",
    "IC50": "0.5 to 5 µM"
  },
  {
    "molecule": "O=C(Cn1cc(-c2ccc(F)cc2)cn1)N(Cc1ccnc(OC(F)F)c1)C1C=CS(=O)(=O)C1 (stereo not shown)",
    "IC50": "< 0.5 µM"
  },
  {
    "molecule": "O=C1Cc2ccc(CC(=O)N(Cc3ccncc3)C3C=CS(=O)(=O)C3)cc2N1 (stereo not shown)",
    "IC50": "> 50 µM"
  },
  {
    "molecule": "O=C(Cc1ccc(OC(F)(F)F)cc1)N(Cc1ccncc1)C1C=CS(=O)(=O)C1 (stereo not shown)",
    "IC50": "5 to 10 µM"
  },
  {
    "molecule": "COC(C(=O)N(Cc1nc(C2CC2)cs1)C1C=CS(=O)(=O)C1)c1ccc(S(F)(F)(F)(F)F)cc1 (stereo not shown)",
    "IC50": "< 0.5 µM"
  },
  {
    "molecule": "COc1nc(CN(C(=O)Cc2ccc(S(F)(F)(F)(F)F)cc2)C2C=CS(=O)(=O)C2)cc(N(C)C)n1 (stereo not shown)",
    "IC50": "5 to 10 µM"
  },
  {
    "molecule": "CC(C)(O)COc1cc(CN(C(=O)Cc2ccc(S(F)(F)(F)(F)F)cc2)C2C=CS(=O)(=O)C2)ccn1 (stereo not shown)",
    "IC50": "< 0.5 µM"
  },
  {
    "molecule": "Cc1c(CC(=O)N(Cc2ccncc2)C2C=CS(=O)(=O)C2)nnn1-c1ccccc1 (stereo not shown)",
    "IC50": "> 50 µM"
  },
  {
    "molecule": "O=C(Cc1nc(C2CCCC2)cs1)N(Cc1ccncc1)C1C=CS(=O)(=O)C1 (stereo not shown)",
    "IC50": "> 50 µM"
  },
  {
    "molecule": "COc1cc(CN(C(=O)C(c2ccc(-c3ccc(F)c(F)c3)cc2F)n2ccnn2)[C@@H]2C=CS(=O)(=O)C2)ccn1 (stereo partly shown)",
    "IC50": "< 0.5 µM"
  },
  {
    "molecule": "COC(C(=O)N(Cc1ccnc(C(C)(C)O)c1)C1C=CS(=O)(=O)C1)c1ccc(S(F)(F)(F)(F)F)cc1 (single isomer, unassigned) [I-664]",
    "IC50": "< 0.5 µM"
  },
  {
    "molecule": "Cc1cccn1-c1ccc(CC(=O)N(Cc2ccnc(C3(O)CCC3)c2)C2C=CS(=O)(=O)C2)c(F)c1 (stereo not shown)",
    "IC50": "< 0.5 µM"
  },
  {
    "molecule": "O=C(Cc1ccc(-n2cnnc2)cc1)N(Cc1ccncc1)C1C=CS(=O)(=O)C1 (stereo not shown)",
    "IC50": "> 50 µM"
  },
  {
    "molecule": "O=C(Cc1ccc(-n2cccc2)cc1)N(Cc1cccc(-n2cccn2)c1)C1C=CS(=O)(=O)C1 (stereo not shown)",
    "IC50": "5 to 10 µM"
  },
  {
    "molecule": "Cc1cccn1-c1ccc(C(C(=O)N(C)C)C(=O)N(Cc2ccnc(C(C)(C)O)c2)C2C=CS(=O)(=O)C2)c(F)c1 (stereo not shown)",
    "IC50": "0.5 to 5 µM"
  },
  {
    "molecule": "Cc1scnc1-c1ccc(CC(=O)N(Cc2ccncc2)C2C=CS(=O)(=O)C2)c(F)c1 (stereo not shown)",
    "IC50": "10 to 50 µM"
  }
]

---

- measuredOn: human Werner helicase (WRN-BV08, Uniprot Q14191, amino acids 517-1235 with L1074F point mutation) (Homo sapiens, UniProt Q14191, L1074F)
- Construct: Uniprot Q14191, amino acids 517-1235 with L1074F point mutation; TEV-cleavable 8×His (C, cleaved yes); made in house; host or cells: Sf9 insect cells (baculovirus)
- measurementProtocol: WRN (BV08) ADP-Glo Assay
- Assay type: biochemical
- experimentalSetup: 0.15 nM WRN, 5 μM ATP, 0.1 nM DNA duplex, 15 min preincubation, 60 min at 25° C., pH 7.5, 1% DMSO; read-out: ADP-Glo_hWRN_IC50
List of IC50 values.
propertyLabel: IC50

[
  {
    "molecule": "Cc1csc(CN(C(=O)Cc2ccc(-n3cccc3)cc2)C2C=CS(=O)(=O)C2)n1 (centres unmarked) [I-189]",
    "measurement": "0.5 to 5 µM"
  },
  {
    "molecule": "O=C(Cc1ccc(-n2cccc2)cc1)N(Cc1ccncc1Cl)C1C=CS(=O)(=O)C1 (centres unmarked) [I-228]",
    "measurement": "5 to 10 µM"
  },
  {
    "molecule": "O=C(Cc1ccc(-n2cccc2)cc1)N(Cc1ccc2nccn2c1)C1C=CS(=O)(=O)C1 (centres unmarked) [I-361]",
    "measurement": "10 to 50 µM"
  },
  {
    "molecule": "CC(C)(O)c1cc(CN(C(=O)Cc2ccc(S(F)(F)(F)(F)F)cc2)[C@H]2C=CS(=O)(=O)C2)ccn1 [I-230]",
    "measurement": "0.5 to 5 µM"
  },
  {
    "molecule": "O=C(Cc1cnc(C(F)(F)F)cn1)N(Cc1ccncc1)C1C=CS(=O)(=O)C1 (centres unmarked) [I-627]",
    "measurement": "> 50 µM"
  },
  {
    "molecule": "O=C(Cc1ccc(-n2cccc2)cc1)N(Cc1nc2c(s1)CCCC2)C1C=CS(=O)(=O)C1 (centres unmarked) [I-154]",
    "measurement": "0.5 to 5 µM"
  },
  {
    "molecule": "Cc1cccn1-c1ccc(CC(=O)N(Cc2ccnc(N(C)C)c2)C2C=CS(=O)(=O)C2)c(F)c1 (centres unmarked) [I-96]",
    "measurement": "0.5 to 5 µM"
  },
  {
    "molecule": "O=C(Cc1ccc(C(F)(F)F)cn1)N(Cc1ccncc1)C1C=CS(=O)(=O)C1 (centres unmarked) [I-389]",
    "measurement": "> 50 µM"
  }
]

Value source: patent US20260297070A1
